Reference source: ChEMBL document CHEMBL1153232

biological target: Protein farnesyltransferase subunit beta (Homo sapiens); test: Substrate activity for FTase assessed as increase in fluorescence by spectrofluorimetry in presence of farnesyl diphosphate relative to DnGCVLS; set-up: concentration or dose not given beside the values
Peptide text beside a SMILES is read from it. * marks the point of attachment. Dansyl = CN(C)c1cccc2c(S(=O)(=O)*)cccc12
MEASURED METRIC: Activity (%)
Respond numerically; units are % and should not be typed.

**Query** Which Activity value belongs to CC(C)C[C@H](NC(=O)[C@H](C)NC(=O)[C@@H](NC(=O)[C@H](CS)NC(=O)CNS(=O)(=O)c1cccc2c(N(C)C)cccc12)[C@@H](C)O)C(=O)O (Dansyl-GCTAL-OH) ?
**Result** 0

**Query** Which Activity value belongs to CC(C)C[C@H](NC(=O)[C@H](CCCCN)NC(=O)[C@H](CCC(=O)O)NC(=O)[C@H](CS)NC(=O)CNS(=O)(=O)c1cccc2c(N(C)C)cccc12)C(=O)O (Dansyl-GCEKL-OH) ?
**Result** 0

**Query** Which Activity value belongs to CC(C)C[C@H](NC(=O)[C@@H](NC(=O)[C@H](CO)NC(=O)[C@H](CS)NC(=O)CNS(=O)(=O)c1cccc2c(N(C)C)cccc12)[C@@H](C)O)C(=O)O (Dansyl-GCSTL-OH) ?
**Result** 0

**Query** Which Activity value belongs to CC[C@H](C)[C@H](NC(=O)[C@H](CS)NC(=O)[C@H](CS)NC(=O)CNS(=O)(=O)c1cccc2c(N(C)C)cccc12)C(=O)N[C@@H](CC(C)C)C(=O)O (Dansyl-GCCIL-OH) ?
**Result** 61

**Query** Which Activity value belongs to CC[C@H](C)[C@H](NC(=O)[C@H](CS)NC(=O)CNS(=O)(=O)c1cccc2c(N(C)C)cccc12)C(=O)N[C@@H](CC(C)C)C(=O)N[C@@H](CC(C)C)C(=O)O (Dansyl-GCILL-OH) ?
**Result** 15

**Query** Which Activity value belongs to CC(C)C[C@H](NC(=O)[C@@H](NC(=O)[C@H](CS)NC(=O)[C@H](CS)NC(=O)CNS(=O)(=O)c1cccc2c(N(C)C)cccc12)C(C)C)C(=O)O (Dansyl-GCCVL-OH) ?
**Result** 11

----------
biological target: Protein farnesyltransferase subunit beta (Homo sapiens) (UniProt P49356); assay: Substrate activity for FTase assessed as increase in fluorescence by spectrofluorimetry in presence of farnesyl diphosphate relative to DnGCVLS; parameters: concentration or dose not given beside the values
Sequence (P49356 whole entry): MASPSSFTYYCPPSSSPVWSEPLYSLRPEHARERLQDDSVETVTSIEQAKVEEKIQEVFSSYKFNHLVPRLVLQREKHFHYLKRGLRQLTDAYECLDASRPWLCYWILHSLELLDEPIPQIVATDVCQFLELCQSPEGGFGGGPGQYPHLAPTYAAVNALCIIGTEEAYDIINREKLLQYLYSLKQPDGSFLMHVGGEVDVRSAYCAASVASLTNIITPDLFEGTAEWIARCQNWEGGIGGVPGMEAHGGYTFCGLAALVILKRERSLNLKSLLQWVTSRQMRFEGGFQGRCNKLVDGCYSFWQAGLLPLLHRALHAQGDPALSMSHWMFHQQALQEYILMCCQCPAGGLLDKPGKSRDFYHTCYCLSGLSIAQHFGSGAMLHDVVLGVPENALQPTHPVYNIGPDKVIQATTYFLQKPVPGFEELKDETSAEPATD
Peptide text beside a SMILES is read from it. * marks the point of attachment. Dansyl = CN(C)c1cccc2c(S(=O)(=O)*)cccc12
Assignment: determine reported Activity for the given compounds.
Respond numerically; units are % and should not be typed.

**Query** Which Activity value belongs to CC(C)C[C@H](NC(=O)CNC(=O)[C@@H](NC(=O)[C@H](CS)NC(=O)CNS(=O)(=O)c1cccc2c(N(C)C)cccc12)C(C)C)C(=O)O (Dansyl-GCVGL-OH) ?
**Result** 0

**Query** Which Activity value belongs to CC(C)C[C@H](NC(=O)[C@H](CC(C)C)NC(=O)[C@H](CCC(N)=O)NC(=O)[C@H](CS)NC(=O)CNS(=O)(=O)c1cccc2c(N(C)C)cccc12)C(=O)O (Dansyl-GCQLL-OH) ?
**Result** 0

**Query** Which Activity value belongs to CC(C)C[C@H](NC(=O)[C@H](Cc1ccc(O)cc1)NC(=O)[C@H](C)NC(=O)[C@H](CS)NC(=O)CNS(=O)(=O)c1cccc2c(N(C)C)cccc12)C(=O)O (Dansyl-GCAYL-OH) ?
**Result** 0

**Query** Which Activity value belongs to CC[C@H](C)[C@H](NC(=O)[C@@H](NC(=O)[C@H](CS)NC(=O)CNS(=O)(=O)c1cccc2c(N(C)C)cccc12)C(C)C)C(=O)N[C@@H](CC(C)C)C(=O)O (Dansyl-GCVIL-OH) ?
**Result** 52

**Query** Which Activity value belongs to CC[C@H](C)[C@H](NC(=O)[C@H](CS)NC(=O)CNS(=O)(=O)c1cccc2c(N(C)C)cccc12)C(=O)N[C@H](C(=O)N[C@@H](CC(C)C)C(=O)O)[C@@H](C)CC (Dansyl-GCIIL-OH) ?
**Result** 101
